# TARGET DESC: full-length H1 A/California/07/2009 HA expressed on 293T cells (influenza A virus A/California/07/2009 (H1N1))
# ASSAY NOTES: flow cytometry, HA-expressing 293T

# BINDER, max. MFI / MFI
measured = [
    ("P10 (antibody, V domains shown) VH: EVQLVESGGGLVQPGGSLRLSCAASGFTIDNSWIHWVRQAPGKGLEWVASIWPFGGYTYYADSVKGRFTISADTSKNTAYLQMNSLRAEDTAVYYCARFGNVFDWYMDYWGQGTLVTVSS VL: DIQMTQSPSSLSASVGDRVTITCRASQDVNSNVAWYQQKPGKAPKLLIYWAGYLYSGVPSRFSGSGSGTDFTLTISSLQPEDFATYYCQQSSDFPITFGQGTKVEIKR", 9660),
    ("S40 (antibody, V domains shown) VH: EVQLVESGGGLVQPGGSLRLSCAASGFTIGDFGIHWVRQAPGKGLEWVAGIWPFGGYTYYADSVKGRFTISADTSKNTAYLQMNSLRAEDTAVYYCARFVNWDGDYMDYWGQGTLVTVSS VL: DIQMTQSPSSLSASVGDRVTITCRASQDVGFYVAWYQQKPGKAPKLLISWSSYLYSGVPSRFSGSGSGTDFTLTISSLQPEDFATYYCQQYYNYPLTFGQGTKVEIKR", 8630),
]
